experiment: total protein half-life in vivo (active degradation + dilution); higher = more stable protein; details: wild type E. coli NCM3722; growth: C-lim chemostat; doubling time 12 h
Items are presented alongside their recorded total protein half-life in vivo.

- Entry Sequence: "MTQYSSLLRGLAAGSAFLFLFAPTAFAAEQTVEAPSVDARAWILMDYASGKVLAEGNADEKLDPASLTKIMTSYVVGQALKADKIKLTDMVTVGKDAWATGNPALRGSSVMFLKPGDQVSVADLNKGVIIQSGNDACIALADYVAGSQESFIGLMNGYAKKLGLTNTTFQTVHGLDAPGQFSTARDMALLGKALIHDVPEEYAIHKEKEFTFNKIRQPNRNRLLWSSNLNVDGMKTGTTAGAGYNLVASATQGDMRLISVVLGAKTDRIRFNESEKLLTWGFRFFETVTPIKPDATFVTQRVWFGDKSEVNLGAGEAGSVTIPRGQLKNLKASYTLTEPQLTAPLKKGQVVGTIDFQLNGKSIEQRPLIVMENVEEGGFFGRVWDFVMMKFHQWFGSWFS"
  total protein half-life in vivo / h: 12.4
- Entry Sequence: "MAGINLNKKLWRIPQQGMVRGVCAGIANYFDVPVKLVRILVVLSIFFGLALFTLVAYIILSFALDPMPDNMAFGEQLPSSSELLDEVDRELAASETRLREMERYVTSDTFTLRSRFRQL [P0AFN2]"
  total protein half-life in vivo / h: 6.7
- Entry Sequence: "MSDISKASLPKAIFLMGPTASGKTALAIELRKILPVELISVDSALIYKGMDIGTAKPNAEELLAAPHRLLDIRDPSQAYSAADFRRDALAEMADITAAGRIPLLVGGTMLYFKALLEGLSPLPSADPEVRARIEQQAAEQGWESLHRQLQEVDPVAAARIHPNDPQRLSRALEVFFISGKTLTELTQTSGDALPYQVHQFAIAPASRELLHQRIEQRFHQMLASGFEAEVRALFARGDLHTDLPSIRCVGYRQMWSYLEGEISYDEMVYRGVCATRQLAKRQITWLRGWEGVHWLDSEKPEQARDEVLQVVGAIAG"
  total protein half-life in vivo / h: 8.97
- Entry Sequence: "MFTGSIVAIVTPMDEKGNVCRASLKKLIDYHVASGTSAIVSVGTTGESATLNHDEHADVVMMTLDLADGRIPVIAGTGANATAEAISLTQRFNDSGIVGCLTVTPYYNRPSQEGLYQHFKAIAEHTDLPQILYNVPSRTGCDLLPETVGRLAKVKNIIGIKEATGNLTRVNQIKELVSDDFVLLSGDDASALDFMQLGGHGVISVTANVAARDMAQMCKLAAEGHFAEARVINQRLMPLHNKLFVEPNPIPVKWACKELGLVATDTLRLPMTPITDSGRETVRAALKHAGLL [P0A6L2]"
  total protein half-life in vivo / h: 11.4
- Entry Sequence: "MTVTRPRAERGAFPPGTEHYGRSLLGAPLIWFPAPAASRESGLILAGTHGDENSSVVTLSCALRTLTPSLRRHHVVLCVNPDGCQLGLRANANGVDLNRNFPAANWKEGETVYRWNSAAEERDVVLLTGDKPGSEPETQALCQLIHRIQPAWVVSFHDPLACIEDPRHSELGEWLAQAFELPLVTSVGYETPGSFGSWCADLNLHCITAEFPPISSDEASEKYLFAMANLLRWHPKDAIRPS [P0ACV6]"
  total protein half-life in vivo / h: 9.23

----------
test: total protein half-life in vivo (active degradation + dilution); higher = more stable protein; settings: E. coli NCM3722 delta-clpP delta-lon delta-hslV; growth: N-lim chemostat; doubling time 6 h

- Entry Sequence: "METKNLTIGERIRYRRKNLKHTQRSLAKALKISHVSVSQWERGDSEPTGKNLFALSKVLQCSPTWILFGDEDKQPTPPVEKPVALSPKELELLELFNALPESEQDTQLAEMRARVKNFNKLFEELLKARQRTNKR"
  total protein half-life in vivo [h]: 6.79
- Entry Sequence: "MTQPMPGKPAEDAENELDIRGLFRTLWAGKLWIIGMGLAFALIALAYTFFARQEWSSTAITDRPTVNMLGGYYSQQQFLRNLDVRSNMASADQPSVMDEAYKEFVMQLASWDTRREFWLQTDYYKQRMVGNSKADAALLDEMINNIQFIPGDFTRAVNDSVKLIAETAPDANNLLRQYVAFASQRAASHLNDELKGAWAARTIQMKAQVKRQEEVAKAIYDRRMNSIEQALKIAEQHNISRSATDVPAEELPDSEMFLLGRPMLQARLENLQAVGPAFDLDYDQNRAMLNTLNVGPTLDPRFQTYRYLRTPEEPVKRDSPRRAFLMIMWGIVGGLIGAGVALTRRCSK [P0AG00]"
  total protein half-life in vivo [h]: 6.85
- Entry Sequence: "MSQVQSGILPEHCRAAIWIEANVKGEVDALRAASKTFADKLATFEAKFPDAHLGAVVAFGNNTWRALSGGVGAEELKDFPGYGKGLAPTTQFDVLIHILSLRHDVNFSVAQAAMEAFGDCIEVKEEIHGFRWVEERDLSGFVDGTENPAGEETRREVAVIKDGVDAGGSYVFVQRWEHNLKQLNRMSVHDQEMVIGRTKEANEEIDGDERPETSHLTRVDLKEDGKGLKIVRQSLPYGTASGTHGLYFCAYCARLHNIEQQLLSMFGDTDGKRDAMLRFTKPVTGGYYFAPSLDKLMAL"
  total protein half-life in vivo [h]: 3.34

----------
experiment: total protein half-life in vivo (active degradation + dilution); higher = more stable protein; conditions: E. coli NCM3722 delta-hslV; growth: N-lim chemostat; doubling time 6 h
Items are presented alongside their recorded total protein half-life in vivo.

- Entry Sequence: "MTLKELLVGFGTQVRSIWMIGLHAFAKRETRMYPEEPVYLPPRYRGRIVLTRDPDGEERCVACNLCAVACPVGCISLQKAETKDGRWYPEFFRINFSRCIFCGLCEEACPTTAIQLTPDFEMGEYKRQDLVYEKEDLLISGPGKYPEYNFYRMAGMAIDGKDKGEAENEAKPIDVKSLLP [P0AFD6]"
  total protein half-life in vivo / h: 6.38
- Entry Sequence: "MSEGWNIAVLGATGAVGEALLETLAERQFPVGEIYALARNESAGEQLRFGGKTITVQDAAEFDWTQAQLAFFVAGKEATAAWVEEATNSGCLVIDSSGLFALEPDVPLVVPEVNPFVLTDYRNRNVIAVPDSLTSQLLAALKPLIDQGGLSRISVTSLISASAQGKKAVDALAGQSAKLLNGIPIDEEDFFGRQLAFNMLPLLPDSEGSVREERRIVDEVRKILQDEGLMISASVVQAPVFYGHAQMVNFEALRPLAAEEARDAFVQGEDIVLSEENEFPTQVGDASGTPHLSVGCVRNDYGMPEQVQFWSVADNVRFGGALMAVKIAEKLVQEYLY"
  total protein half-life in vivo / h: 4.6
- Entry Sequence: "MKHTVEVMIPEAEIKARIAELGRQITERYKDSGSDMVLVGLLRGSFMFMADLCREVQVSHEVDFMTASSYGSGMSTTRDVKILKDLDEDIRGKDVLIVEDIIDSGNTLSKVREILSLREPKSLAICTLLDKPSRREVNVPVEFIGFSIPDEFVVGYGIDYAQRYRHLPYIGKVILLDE [P0A9M2]"
  total protein half-life in vivo / h: 4.14
- Entry Sequence: "MLVWLAEHLVKYYSGFNVFSYLTFRAIVSLLTALFISLWMGPRMIAHLQKLSFGQVVRNDGPESHFSKRGTPTMGGIMILTAIVISVLLWAYPSNPYVWCVLVVLVGYGVIGFVDDYRKVVRKDTKGLIARWKYFWMSVIALGVAFALYLAGKDTPATQLVVPFFKDVMPQLGLFYILLAYFVIVGTGNAVNLTDGLDGLAIMPTVFVAGGFALVAWATGNMNFASYLHIPYLRHAGELVIVCTAIVGAGLGFLWFNTYPAQVFMGDVGSLALGGALGIIAVLLRQEFLLVIMGGVFVVETLSVILQVGSFKLRGQRIFRMAPIHHHYELKGWPEPRVIVRFWIISLMLVLIGLATLKVR [P0A6W3]"
  total protein half-life in vivo / h: 5.23
- Entry Sequence: "MSALNKKSFLTYLKEGGIYVVLLVLLAIIIFQDPTFLSLLNLSNILTQSSVRIIIALGVAGLIVTQGTDLSAGRQVGLAAVVAATLLQSMDNANKVFPEMATMPIALVILIVCAIGAVIGLINGLIIAYLNVTPFITTLGTMIIVYGINSLYYDFVGASPISGFDSGFSTFAQGFVALGSFRLSYITFYALIAVAFVWVLWNKTRFGKNIFAIGGNPEAAKVSGVNVGLNLLMIYALSGVFYAFGGMLEAGRIGSATNNLGFMYELDAIAACVVGGVSFSGGVGTVIGVVTGVIIFTVINYGLTYIGVNPYWQYIIKGAIIIFAVALDSLKYARKK"
  total protein half-life in vivo / h: 6.83

----------
Items are presented alongside their recorded total protein half-life in vivo.
experiment: total protein half-life in vivo (active degradation + dilution); higher = more stable protein; details: wild type E. coli NCM3722; growth: N-lim chemostat; doubling time 12 h
Quantity Name: total protein half-life in vivo (h)

- Entry Sequence: "MNEQSQAKSPEALRAMVAGTLANFQHPTLKHNLTTLKALHHVAWMDDTLHVELVMPFVWHSAFEELKEQCSAELLRITGAKAIDWKLSHNIATLKRVKNQPGINGVKNIIAVSSGKGGVGKSSTAVNLALALAAEGAKVGILDADIYGPSIPTMLGAENQRPTSPDGTHMAPIMSHGLATNSIGYLVTDDNAMVWRGPMASKALMQMLQETLWPDLDYLVLDMPPGTGDIQLTLAQNIPVTGAVVVTTPQDIALIDAKKGIVMFEKVEVPVLGIVENMSVHICSNCGHHEPIFGTGGAEKLAEKYHTQLLGQMPLHISLREDLDKGTPTVISRPESEFTAIYRQLADRVAAQLYWQGEVIPGEISFRAV [P0AF08]"
  Readout Number: 5.91
- Entry Sequence: "MSAVLTAEQALKLVGEMFVYHMPFNRALGMELERYEKEFAQLAFKNQPMMVGNWAQSILHGGVIASALDVAAGLVCVGSTLTRHETISEDELRQRLSRMGTIDLRVDYLRPGRGERFTATSSLLRAGNKVAVARVELHNEEQLYIASATATYMVG [P0ADP2]"
  Readout Number: 4.13
- Entry Sequence: "MPALDLIRPSVTAMRVIASVNADFARELKLPPHIRSLGLISADSDDVTYIAADEATKQAMVEVVYGRSLYAGAAHGPSPTAGEVLIMLGGPNPAEVRAGLDAMIAHIENGAAFQWANDAQDTAFLAHVVSRTGSYLSSTAGITLGDPMAYLVAPPLEATYGIDAALKSADVQLATYVPPPSETNYSAAFLTGSQAACKAACNAFTDAVLEIARNPIQRA"
  Readout Number: 7.99
- Entry Sequence: "MANRMILNETAWFGRGAVGALTDEVKRRGYQKALIVTDKTLVQCGVVAKVTDKMDAAGLAWAIYDGVVPNPTITVVKEGLGVFQNSGADYLIAIGGGSPQDTCKAIGIISNNPEFADVRSLEGLSPTNKPSVPILAIPTTAGTAAEVTINYVITDEEKRRKFVCVDPHDIPQVAFIDADMMDGMPPALKAATGVDALTHAIEGYITRGAWALTDALHIKAIEIIAGALRGSVAGDKDAGEEMALGQYVAGMGFSNVGLGLVHGMAHPLGAFYNTPHGVANAILLPHVMRYNADFTGEKYRDIARVMGVKVEGMSLEEARNAAVEAVFALNRDVGIPPHLRDVGVRKEDIPALAQAALDDVCTGGNPREATLEDIVELYHTAW [P0A9S1]"
  Readout Number: 4.94
- Entry Sequence: "MIYPDEAMLYAPVEWHDCSEGFEDIRYEKSTDGIAKITINRPQVRNAFRPLTVKEMIQALADARYDDNIGVIILTGAGDKAFCSGGDQKVRGDYGGYKDDSGVHHLNVLDFQRQIRTCPKPVVAMVAGYSIGGGHVLHMMCDLTIAADNAIFGQTGPKVGSFDGGWGASYMARIVGQKKAREIWFLCRQYDAKQALDMGLVNTVVPLADLEKETVRWCREMLQNSPMALRCLKAALNADCDGQAGLQELAGNATMLFYMTEEGQEGRNAFNQKRQPDFSKFKRNP [P0ABU0]"
  Readout Number: 6.07
- Entry Sequence: "MKKLVLSLSLVLAFSSATAAFAAIPQNIRIGTDPTYAPFESKNSQGELVGFDIDLAKELCKRINTQCTFVENPLDALIPSLKAKKIDAIMSSLSITEKRQQEIAFTDKLYAADSRLVVAKNSDIQPTVESLKGKRVGVLQGTTQETFGNEHWAPKGIEIVSYQGQDNIYSDLTAGRIDAAFQDEVAASEGFLKQPVGKDYKFGGPSVKDEKLFGVGTGMGLRKEDNELREALNKAFAEMRADGTYEKLAKKYFDFDVYGG [P0AEU0]"
  Readout Number: 13.9

These measurements were taken from the supplement of paper PMC11246515.
